# protocol_summary: Stability in human liver microsomes at 2 uM measured upto 30 mins in presence of NADPH by LC-MS/MS analysis
# Format: ADME, Microsome
# settings: read-out: Stability
Examples of compounds with documented remaining at 0.5 h, 2 µM follow.
recorded_metric: remaining at 0.5 h, 2 µM

INSERT INTO results (compound, result) VALUES
  ('C[C@@H]1C[C@H]1COC(C)(C)[C@@H]1C[C@H]1[C@]12CN(c3ncccn3)C[C@H]1CSC(N)=N2', '31%'),
  ('NC1=N[C@@]2(c3cc(NC(=O)c4ccc(F)cn4)ccc3F)CN(c3ncc(F)cn3)C[C@H]2CS1 (relative stereo)', '13%'),
  ('COc1cnc(C(=O)Nc2ccc(F)c([C@]34CN(c5ncc(F)cn5)C[C@H]3CSC(N)=N4)c2)cn1', '12%');

====

Examples of molecules with documented pKa follow.
# protocol_summary: Dissociation constant, pKa of compound
# Format: physicochemical
recorded_metric: pKa

INSERT INTO results (molecule, recorded_metric, readout_number) VALUES
  ('C[C@@H]1C[C@H]1CNC(=O)[C@@H]1C[C@H]1[C@]12COC[C@H]1CSC(N)=N2', 'pKa', 8),
  ('NC1=N[C@@]2(c3cc(NC(=O)c4ccc(F)cn4)ccc3F)COC[C@H]2CS1', 'pKa', 7.7),
  ('NC1=N[C@@]2(c3cc(NC(=O)c4ccc(F)cn4)ccc3F)CN(c3ncc(F)cn3)C[C@H]2CS1 (relative stereo)', 'pKa', 7.9),
  ('COc1cnc(C(=O)Nc2ccc(F)c([C@]34CN(c5ncc(F)cn5)C[C@H]3CSC(N)=N4)c2)cn1', 'pKa', 7.6),
  ('Cl.NC1=N[C@@]2(c3ccns3)CN(c3ncc(F)cn3)C[C@H]2CS1', 'pKa', 6.4),
  ('C[C@@]1(c2cc(-c3cncnc3)c(F)cc2F)CCSC(N)=N1', 'pKa', 8.8),
  ('C[C@@H]1C[C@H]1CNC(=O)[C@@H]1C[C@H]1[C@]12CN(c3ncccn3)C[C@H]1CSC(N)=N2', 'pKa', 8),
  ('Cl.Cl.NC1=N[C@@]2(c3cccs3)CN(c3ncccn3)C[C@H]2CS1', 'pKa', 7.6);

====

# protocol_summary: Oral clearance in human
# Format: ADME
recorded_metric: CL/F (L/h/kg)

INSERT INTO measurements (mol, readout_number) VALUES
  ('COc1cnc(C(=O)Nc2ccc(F)c([C@]34CN(c5ncc(F)cn5)C[C@H]3CSC(N)=N4)c2)cn1', 1.56);

====

# protocol_summary: Ratio of free drug concentration in CSF to plasma of dog
# Type: ADME, Canis lupus familiaris
# settings: CSF and plasma
Examples of molecules with documented Kp uu follow.
recorded_metric: Kp uu

INSERT INTO assay_data (molecule, recorded_metric, readout_number) VALUES
  ('NC1=N[C@@]2(c3cc(NC(=O)c4ccc(F)cn4)ccc3F)CN(c3ncc(F)cn3)C[C@H]2CS1 (relative stereo)', 'Kp uu', 0.1),
  ('NC1=N[C@@]2(c3cc(NC(=O)c4ncc(F)cc4F)ccc3F)CN(c3ncc(F)cn3)C[C@H]2CS1', 'Kp uu', 0.2),
  ('NC1=N[C@@]2(c3cc(NC(=O)c4ccc(F)cn4)ccc3F)COC[C@H]2CS1', 'Kp uu', 0.9),
  ('COc1cnc(C(=O)Nc2ccc(F)c([C@]34CN(c5ncc(F)cn5)C[C@H]3CSC(N)=N4)c2)cn1', 'Kp uu', 0.9),
  ('Cl.NC1=N[C@@]2(c3ccns3)CN(c3ncc(F)cn3)C[C@H]2CS1', 'Kp uu', 1);
